System: SNB-75
Experiment: NCI tumour cell line growth inhibition, 48 h
Activity calls are given as the source filed them. Rule as the data show it: active = GI50 up to about 1.1 µM and inactive = higher.
API: response.call in active, inactive

Past entries and their recorded results:
# compound, category label
measured = [
    ("O=C1OC2(CCCCC2)C(Oc2ccc(Cl)cc2)=C1F", "inactive"),
    ("COc1cc([C@@H]2c3cc4c(cc3C[C@H]3COC(=O)[C@@H]32)OCO4)cc(OC)c1OC", "active"),
    ("CN1CCN(C(=O)CCNC(=O)Cc2ccc(C(=O)c3ccccc3)cc2)CC1", "inactive"),
    ("CC1(C)C(=O)OC(n2cc(F)c(=O)[nH]c2=O)C1=O (stereo not given)", "inactive"),
    ("CCOC(=O)c1nc2ccccc2nc1Oc1ccc(F)cc1", "inactive"),
]

Please examine the following record next.
-- ask Kindly provide the recorded test outcome for the following compound: COc1cc2c(cc1O)CCN(C)[C@H]2Cc1ccc(Oc2c(O)c(OC)cc3c2C[C@H]2c4c(c(OC)c(OC)c(OC)c4-3)CCN2C)cc1
-- reply inactive
